- experiment.notes: Acute toxicity in mice
- reported.conditions: mouse, in vivo, po
Counter-ions that a name gives are not always drawn.
property: LD50 (mg/kg)
Give your result in mg/kg as a bare value.

# LD50 (compound: OC(c1ccccc1)(c1ccccc1)C1CN2CCC1CC2 (stereo not shown) [hydrochloride] ) is 370

----------
- experiment.notes: Acute toxicity in rats
- reported.conditions: rat, in vivo, po, in the stomach
Structures can show the parent of a compound that is named as a salt.
property: LD50 (mg/kg)
Give your result in mg/kg as a bare value.

# LD50 (compound: OC(c1ccccc1)(c1ccccc1)C1CN2CCC1CC2 (stereo not shown) [hydrochloride] ) is 440
